measurement-target: Menin-MLL (Homo sapiens)
Construct: His-Menin (M1-L615 end); purchased BIORTUS BP9210
method: Inhibitory activity against Menin-MLL binding (fluorescence polarization)
condition-context: fluorescence polarization; 150 nM His-Menin, 15 nM FITC-MLL; 25°C for 60 min; read-out: Menin-MLL IC50
pIC50: −log10 of the molar value.
Reported values of pIC50 for individual entries
measured-metric: pIC50

- molecule: "C=C1C[C@@H]2CC[C@H]1[C@@H](C(=O)N1CCC(c3cc(-c4ccc(F)cc4C(=O)N(CC)C(C)C)c4cncn4c3)CC1)N2"
  measurement-target: "Menin-MLL (Homo sapiens)"
  reading: 6.86
- molecule: "CCN(C(=O)c1cc(F)ccc1-c1cc(C2CN([C@H](CCCN3CCN[C@@H](CF)C3)C(C)C)C2)cn2c(C)ncc12)C(C)C"
  measurement-target: "Menin-MLL (Homo sapiens)"
  reading: 8.66
- molecule: "CC(=O)N1CCC(CN2CC(c3cc(-c4ccc(F)cc4C(=O)N4[C@H](C)COC[C@H]4C)c4c(F)nc(C)n4c3)C2)CC1"
  measurement-target: "Menin-MLL (Homo sapiens)"
  reading: 7.99
- molecule: "CCN(C(=O)c1cc(F)ccc1-c1cc(C2CN([C@H](CCCN3CCO[C@@H](CO)C3)C(C)C)C2)cn2c(C)ncc12)C(C)C"
  measurement-target: "Menin-MLL (Homo sapiens)"
  reading: 8.33
- molecule: "CCN(C(=O)c1cc(F)ccc1-c1cc(N2CCN(CC3CCCCC3)CC2)cn2c(C)ncc12)C(C)C"
  measurement-target: "Menin-MLL (Homo sapiens)"
  reading: 6.91
- molecule: "CCN(C(=O)c1cc(F)ccc1-c1cc(C2CN(C(C)C3CCN(C(C)=O)CC3)C2)cn2c(C)nc(F)c12)C(C)C (stereo not drawn)"
  measurement-target: "Menin-MLL (Homo sapiens)"
  reading: 8.22
- molecule: "COC(=O)N1CCC(CN2CC(c3cc(-c4ccc(F)cc4C(=O)N4CCOC[C@H]4C)c4c(F)nc(C)n4c3)C2)CC1"
  measurement-target: "Menin-MLL (Homo sapiens)"
  reading: 7.23
- molecule: "CC(=O)N1CC2CC(C1)N2CCC[C@H](C(C)C)N1CC(c2cc(-c3ccc(F)cc3C(=O)N3CCOC[C@H]3C)c3c(F)nc(C)n3c2)C1"
  measurement-target: "Menin-MLL (Homo sapiens)"
  reading: 8.42
- molecule: "COC[C@@H]1CN(CCC[C@H](C(C)C)N2CC(c3cc(-c4ccc(F)cc4C(=O)N(C(C)C)C(C)C)c4cnc(C)n4c3)C2)CCN1"
  measurement-target: "Menin-MLL (Homo sapiens)"
  reading: 9.00
- molecule: "Cc1nc(F)c2c(-c3ccc(F)cc3C(=O)N3[C@H](C)COC[C@H]3C)cc(C3CN(CC4CCN(C(=O)C5(O)CC5)CC4)C3)cn12"
  measurement-target: "Menin-MLL (Homo sapiens)"
  reading: 8.30
- molecule: "CCS(=O)(=O)N[C@@H]1CC[C@@H](CN2CC(c3cc(-c4ccc(F)cc4C(=O)N(CC(F)F)C(C)C)c4cnn(C)c4c3)C2)OC1"
  measurement-target: "Menin-MLL (Homo sapiens)"
  reading: 7.13
- molecule: "CO[C@@H]1CCCN(CCC[C@H](C(C)C)N2CC(c3cc(-c4ccc(F)cc4C(=O)N4CCOC[C@H]4C)c4c(F)nc(C)n4c3)C2)C1"
  measurement-target: "Menin-MLL (Homo sapiens)"
  reading: 8.10
- molecule: "COCC(C1CCOCC1)N1CC(c2cc(-c3ccc(F)cc3C(=O)N3CCOC[C@H]3C)c3c(F)nc(C)n3c2)C1 (stereo partly drawn)"
  measurement-target: "Menin-MLL (Homo sapiens)"
  reading: 7.07
- molecule: "COC1CCN(CCC[C@@H](C(C)C)N2CC(c3cc(-c4ccc(F)cc4C(=O)N4CCOC[C@H]4C)c4cnn(C)c4c3)C2)CC1"
  measurement-target: "Menin-MLL (Homo sapiens)"
  reading: 6.21
- molecule: "CCN(C(=O)c1cc(F)ccc1-c1cc(C2CN(C(CO)C(C)C)C2)cn2c(C)ncc12)C(C)C (stereo not drawn)"
  measurement-target: "Menin-MLL (Homo sapiens)"
  reading: 7.85
- molecule: "COCCN(C)CCCC(C(C)C)N1CC(c2cc(-c3ccc(F)cc3C(=O)N(CC(F)F)C(C)C)c3cnccn23)C1 (stereo not drawn)"
  measurement-target: "Menin-MLL (Homo sapiens)"
  reading: 6.85
- molecule: "CCN(C(=O)c1cc(F)ccc1-c1cc(C2CN([C@H](CCCN3CCN(C(C)=O)CC3)C(C)C)C2)cc2c1cnn2C)C(C)C"
  measurement-target: "Menin-MLL (Homo sapiens)"
  reading: 7.48
- molecule: "CCN(C(=O)c1cc(F)ccc1-c1cc(C2CN([C@@H](C)C3CCN(C(=O)NC)CC3)C2)cn2c(C)nc(F)c12)C(C)C"
  measurement-target: "Menin-MLL (Homo sapiens)"
  reading: 8.70
- molecule: "CCN(C(=O)c1cc(F)ccc1-c1cc(C2CN([C@H](CCCN3C4COCC3C4)C(C)C)C2)cc2c1cnn2C)C(C)C"
  measurement-target: "Menin-MLL (Homo sapiens)"
  reading: 8.49
- molecule: "CCN(C(=O)c1cc(F)ccc1-c1cc(C2CN([C@@H](CN3CCN(C)CC3)C(C)C)C2)cn2c(C)ncc12)C(C)C"
  measurement-target: "Menin-MLL (Homo sapiens)"
  reading: 8.00
- molecule: "CCN(C(=O)c1cc(F)ccc1-c1cc(C2CN([C@H](CN3CCN(C)CC3)C(C)C)C2)cn2c(C)ncc12)C(C)C"
  measurement-target: "Menin-MLL (Homo sapiens)"
  reading: 8.41

---

System: MEIS1 gene expression
method: Inhibition of MEIS1 gene expression in human tumor cells (qRT-PCR), OCI-AML3
Format: cell-based
condition-context: OCI-AML-3, OCI-AML3 (carrying NPM1c), 48 hours of incubation, relative MEIS1 gene expression vs GAPDH

- compound: "Cc1nc(F)c2c(-c3ccc(F)cc3C(=O)N3CCOC[C@H]3C)cc(C3CN([C@H](CCCN4C[C@H]5C[C@@H]4CO5)C(C)C)C3)cn12 [Example 353]"
  EC50 (nM): 21
- compound: "Cc1nc(F)c2c(-c3ccc(F)cc3C(=O)N3CCOC[C@H]3C)cc(C3CN([C@H](CO[C@@H]4CCCN(C)C4)C(C)C)C3)cn12 [Example 297-1]"
  EC50 (nM): 34
- compound: "CCN(C(=O)c1cc(F)ccc1-c1cc(C2CN([C@H](CCCN3C4COCC3C4)C(C)C)C2)cn2c(C)ncc12)C(C)C [Example 423]"
  EC50 (nM): 6.1

---

measurement-target: Menin-MLL (Homo sapiens, UniProt O00255)
Construct: His-Menin (M1-L615 end); purchased BIORTUS BP9210
Sequence (O00255 1-615 isoform O00255-1): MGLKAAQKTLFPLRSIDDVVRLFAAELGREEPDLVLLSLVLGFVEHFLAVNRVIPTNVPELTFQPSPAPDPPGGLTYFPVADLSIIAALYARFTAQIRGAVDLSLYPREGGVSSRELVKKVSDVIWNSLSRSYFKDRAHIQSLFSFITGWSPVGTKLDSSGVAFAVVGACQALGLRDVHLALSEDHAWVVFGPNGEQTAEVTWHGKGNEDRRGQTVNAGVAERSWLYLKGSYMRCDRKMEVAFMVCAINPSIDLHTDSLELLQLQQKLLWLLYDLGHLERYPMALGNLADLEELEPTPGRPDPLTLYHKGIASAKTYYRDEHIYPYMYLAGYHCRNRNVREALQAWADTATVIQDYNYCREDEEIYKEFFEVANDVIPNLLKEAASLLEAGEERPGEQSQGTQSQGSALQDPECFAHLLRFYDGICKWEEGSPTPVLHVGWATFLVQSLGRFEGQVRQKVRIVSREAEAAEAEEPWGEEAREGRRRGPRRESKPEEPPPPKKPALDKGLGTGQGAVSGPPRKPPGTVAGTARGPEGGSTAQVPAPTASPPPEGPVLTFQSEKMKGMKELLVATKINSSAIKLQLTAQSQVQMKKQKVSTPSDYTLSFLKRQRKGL
method: Inhibitory activity against Menin-MLL binding (fluorescence polarization)
condition-context: fluorescence polarization; 150 nM His-Menin, 15 nM FITC-MLL; 25°C for 60 min; read-out: Menin-MLL IC50
Reported values of IC50 for individual entries
measured-metric: IC50 (nM)

- compound: "CCN(C(=O)c1cc(F)ccc1-c1cc(C2CN([C@H](CN3C[C@@H](O)[C@H](O)C3)C(C)C)C2)cn2c(C)ncc12)C(C)C [Example 446-1]"
  measurement-target: "Menin-MLL (Homo sapiens, UniProt O00255)"
  measured-metric: "IC50"
  reading: 7.3
- compound: "CCN(C(=O)c1cc(F)ccc1-c1cc(C2CN(CC3CCN(C(C)=O)CC3)C2)cn2c(C)ncc12)C(C)C [Example 289]"
  measurement-target: "Menin-MLL (Homo sapiens, UniProt O00255)"
  measured-metric: "IC50"
  reading: 10
- compound: "CCN(C(=O)c1cc(F)ccc1-c1cc(C2CN([C@H](CCCN3CCC(S(C)(=O)=O)CC3)C(C)C)C2)cc2c1cnn2C)C(C)C [Example 406]"
  measurement-target: "Menin-MLL (Homo sapiens, UniProt O00255)"
  measured-metric: "IC50"
  reading: 7
- compound: "CCN(C(=O)c1cc(F)ccc1-c1cc(C2CN([C@H](CCCN3CCOC[C@@H]3CO)C(C)C)C2)cn2c(C)ncc12)C(C)C [Example 452]"
  measurement-target: "Menin-MLL (Homo sapiens, UniProt O00255)"
  measured-metric: "IC50"
  reading: 5.3
- compound: "CC(=O)N1CCN(CCC[C@H](C(C)C)N2CC(c3cc(-c4ccc(F)cc4C(=O)N4CCOC[C@H]4C)c4c(F)nc(C)n4c3)C2)C[C@H]1C [Example 330]"
  measurement-target: "Menin-MLL (Homo sapiens, UniProt O00255)"
  measured-metric: "IC50"
  reading: 16
- compound: "CCN(C(=O)c1cc(F)ccc1-c1cc(C2CN([C@H](CCCN3CCC(OCCO)CC3)C(C)C)C2)cc2c1cnn2C)C(C)C [Example 401-2]"
  measurement-target: "Menin-MLL (Homo sapiens, UniProt O00255)"
  measured-metric: "IC50"
  reading: 3.7
- compound: "CC(=O)N1CCN(CCC[C@H](C(C)C)N2CC(c3cc(-c4ccc(F)cc4C(=O)N4CCOC[C@H]4C)c4c(F)nc(C)n4c3)C2)[C@H](C)C1 [Example 328]"
  measurement-target: "Menin-MLL (Homo sapiens, UniProt O00255)"
  measured-metric: "IC50"
  reading: 16
